System: SH-SY5Y cells; further: reference of the scale not given here
assay.conditions: human
result.type: Nuclear Count
Keep the answer to the number alone.

These solved cases illustrate the format of a correct answer.
1) CCCCc1nn2ncccc2c1-c1ccnc(Nc2ccc(N3CCN(C)CC3)cc2)n1 [UNC10225453A]
74.87
2) CC(C)(CN)c1nc(-c2ccc(Cl)c(O)c2)c(-c2ccncc2)[nH]1.O=C(O)C(F)(F)F [UNC10225206B]
109.20

The compound CN(C)CC(O)COc1ccc(Nc2nccc(-c3cnn4nc(N5CCOCC5)ccc34)n2)cc1 (centres unmarked) [UNC10225197A] showed Nuclear Count equal to 103.35

The reported value for CC(C)(CN)c1nc(-c2ccc(Cl)c(O)c2)c(-c2ccncc2)[nH]1.O=C(O)C(F)(F)F [UNC10225206A] in terms of Nuclear Count is 76.70

Cn1cnc2c(N)ncnc21 [UNC10225123A] has a reported Nuclear Count of 110.43

The reported value for CC(C)Oc1ccc2c(-c3ccnc(Nc4ccc(N5CCN(C)CC5)cc4)n3)cnn2n1 [UNC10225414A] in terms of Nuclear Count is 127.68

// Cc1ccc(-n2nc(C(C)(C)C)cc2NC(=O)Nc2ccc(OCCN3CCOCC3)c3ccccc23)cc1 [UNC10225354A] : Nuclear Count value = 65.33

Lab note: CCCCc1nn2ncccc2c1-c1ccnc(NC2CC2)n1 [UNC10225247A] gave Nuclear Count of 77.00
